System: S. aureus
Measurement Description: MIC assay, S. aureus
Assay type: cell-based
Recorded Endpoint: MIC (μg/mL) S. aureus (µg/mL)
A number alone suffices; assume µg/mL.

| Molecule | Test System | MIC (μg/mL) S. aureus [µg/mL] |
| --- | --- | --- |
| CCOC(=O)NC1CCN(c2cc(O)c3nc4c5c6c7c(C)c(O)c5c(=O)c(c-4oc3c2)NC(=O)/C(C)=C\C=C\[C@H](C)[C@H](O)[C@@H](C)[C@@H](O)[C@@H](C)[C@H](OC(C)=O)[C@H](C)[C@@H](OC)/C=C/O[C@@](C)(O7)C6=O)CC1 [Compound 1] | S. aureus | 0.008 |
| COC1C=COC2(C)Oc3c(C)c(O)c4c(=O)c(c5oc6cc(N7CCC(NC(=O)OC(C)C)CC7)cc(O)c6nc-5c4c3C2=O)NC(=O)C(C)=CC=CC(C)C(O)C(C)C(O)C(C)C(O)C1C (stereo not drawn) [Compound 29] | S. aureus | 0.008 |
| CO[C@H]1/C=C/O[C@@]2(C)Oc3c(C)c(O)c4c(=O)c(c5sc6cc(N7CCC(N(C)C)CC7)ccc6nc-5c4c3C2=O)NC(=O)/C(C)=C\C=C\[C@H](C)[C@H](O)[C@@H](C)[C@@H](O)[C@@H](C)[C@H](OC(C)=O)[C@@H]1C [Compound 69] | S. aureus | 0.015 |
| CCCS(=O)(=O)NC1CCN(c2cc(O)c3nc4c5c6c7c(C)c(O)c5c(=O)c(c-4oc3c2)NC(=O)/C(C)=C\C=C\[C@H](C)[C@H](O)[C@@H](C)[C@@H](O)[C@@H](C)[C@H](OC(C)=O)[C@H](C)[C@@H](OC)/C=C/O[C@@](C)(O7)C6=O)CC1 [Compound 35] | S. aureus | 0.015 |
| CCOC(=O)N1CCCC2CN(c3cc(O)c4nc5c6c7c8c(C)c(O)c6c(=O)c(c-5oc4c3)NC(=O)C(C)=CC=CC(C)C(O)C(C)C(O)C(C)C(O)C(C)C(OC)C=COC(C)(O8)C7=O)CC21 (stereo not drawn) [Compound 42] | S. aureus | 0.008 |
| CO[C@H]1/C=C/O[C@@]2(C)Oc3c(C)c(O)c4c(=O)c(c5sc6cc(N7C[C@@H](C)N[C@@H](C)C7)ccc6nc-5c4c3C2=O)NC(=O)/C(C)=C\C=C\[C@H](C)[C@H](O)[C@@H](C)[C@@H](O)[C@@H](C)[C@H](OC(C)=O)[C@@H]1C [Compound 64] | S. aureus | 0.004 |
| CO[C@H]1/C=C/O[C@@]2(C)Oc3c(C)c(O)c4c(=O)c(c5sc6cc(N7C[C@@H](C)N(CC8CC8)C[C@@H]7C)ccc6nc-5c4c3C2=O)NC(=O)/C(C)=C\C=C\[C@H](C)[C@H](O)[C@@H](C)[C@@H](O)[C@@H](C)[C@H](OC(C)=O)[C@@H]1C [Compound 68] | S. aureus | 0.06 |
| CO[C@H]1/C=C/O[C@@]2(C)Oc3c(C)c(O)c4c(=O)c(c5sc6cc(N7CCN8CCC[C@H]8C7)ccc6nc-5c4c3C2=O)NC(=O)/C(C)=C\C=C\[C@H](C)[C@H](O)[C@@H](C)[C@@H](O)[C@@H](C)[C@H](OC(C)=O)[C@@H]1C [Compound 76] | S. aureus | 0.008 |

# input for lookup
### Prompt Need MIC (μg/mL) S. aureus of CO[C@H]1/C=C/O[C@@]2(C)Oc3c(C)c(O)c4c(=O)c(c5oc6cc(N7C[C@@H]8CCCN(C)[C@@H]8C7)cc(O)c6nc-5c4c3C2=O)NC(=O)/C(C)=C\C=C\[C@H](C)[C@H](O)[C@@H](C)[C@@H](O)[C@@H](C)[C@H](OC(C)=O)[C@@H]1C [Compound 58] , thanks.
### Response 0.03
